# target.under.test: SMARCA2-HiBiT (Homo sapiens, UniProt P51531)
# Construct: SMARCA2-HiBiT knock-in Hela monoclonal cell (CS302366); host or cells: HeLa monoclonal knock-in line (CRISPR HiBiT knock-in at the endogenous locus, heterozygous)
# Sequence (P51531 whole entry): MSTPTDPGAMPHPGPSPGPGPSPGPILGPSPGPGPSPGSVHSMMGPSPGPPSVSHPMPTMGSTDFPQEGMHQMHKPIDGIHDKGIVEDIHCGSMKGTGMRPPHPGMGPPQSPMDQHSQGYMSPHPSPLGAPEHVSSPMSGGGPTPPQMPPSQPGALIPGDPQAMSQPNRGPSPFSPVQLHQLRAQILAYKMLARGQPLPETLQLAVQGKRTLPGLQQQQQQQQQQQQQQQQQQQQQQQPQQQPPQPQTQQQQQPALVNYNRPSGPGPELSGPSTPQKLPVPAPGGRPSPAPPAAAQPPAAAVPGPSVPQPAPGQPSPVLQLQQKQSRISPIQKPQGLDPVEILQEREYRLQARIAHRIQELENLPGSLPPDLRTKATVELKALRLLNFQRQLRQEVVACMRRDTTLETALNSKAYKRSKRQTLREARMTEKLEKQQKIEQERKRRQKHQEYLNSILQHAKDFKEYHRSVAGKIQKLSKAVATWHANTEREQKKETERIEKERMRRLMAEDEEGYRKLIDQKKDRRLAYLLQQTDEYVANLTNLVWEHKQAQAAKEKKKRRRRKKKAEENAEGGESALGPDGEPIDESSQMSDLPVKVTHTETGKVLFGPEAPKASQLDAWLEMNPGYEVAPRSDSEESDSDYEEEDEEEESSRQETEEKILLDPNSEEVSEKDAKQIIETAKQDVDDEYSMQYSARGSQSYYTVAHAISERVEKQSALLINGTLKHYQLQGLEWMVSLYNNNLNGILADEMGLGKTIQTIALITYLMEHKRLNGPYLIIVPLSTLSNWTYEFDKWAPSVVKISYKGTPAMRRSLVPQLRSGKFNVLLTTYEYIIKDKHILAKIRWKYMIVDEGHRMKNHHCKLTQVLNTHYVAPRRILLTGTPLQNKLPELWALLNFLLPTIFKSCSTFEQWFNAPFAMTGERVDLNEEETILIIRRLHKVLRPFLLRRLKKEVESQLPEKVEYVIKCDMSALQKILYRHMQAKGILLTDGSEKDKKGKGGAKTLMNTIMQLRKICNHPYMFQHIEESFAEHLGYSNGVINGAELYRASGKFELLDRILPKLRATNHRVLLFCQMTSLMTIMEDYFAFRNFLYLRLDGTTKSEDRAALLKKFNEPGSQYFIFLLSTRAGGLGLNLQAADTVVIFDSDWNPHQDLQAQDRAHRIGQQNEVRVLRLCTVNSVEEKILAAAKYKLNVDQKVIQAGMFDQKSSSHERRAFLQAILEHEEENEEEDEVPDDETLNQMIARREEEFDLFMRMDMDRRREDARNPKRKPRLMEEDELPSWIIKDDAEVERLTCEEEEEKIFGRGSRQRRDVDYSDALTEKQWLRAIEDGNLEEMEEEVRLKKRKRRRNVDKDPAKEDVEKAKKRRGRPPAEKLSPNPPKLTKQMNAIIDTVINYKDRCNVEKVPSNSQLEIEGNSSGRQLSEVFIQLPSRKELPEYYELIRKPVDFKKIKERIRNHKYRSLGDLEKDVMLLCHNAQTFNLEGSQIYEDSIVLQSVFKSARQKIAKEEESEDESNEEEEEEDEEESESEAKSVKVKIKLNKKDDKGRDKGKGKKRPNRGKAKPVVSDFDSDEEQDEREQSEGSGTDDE
# assay.summary: SMARCA2 HiBiT degradation assay in HeLa cells
# Format: cell-based
# setup.conditions: HeLa, 18 hours incubation, read-out: HeLa-HiBit-SM2 Dmax (%)
readout: Dmax

Below, each entry is followed by its recorded Dmax result.
compound	endpoint.value
O=C1CCC(N2C(=O)c3ccc(N4CCC(O)(CN5CCC(CN6CCN7c8cc(-c9ccccc9O)nnc8NC[C@H]7C6)CC5)CC4)cc3C2=O)C(=O)N1 (stereo partly drawn) [Example 50]	> 85%
O=C1CCC(N2C(=O)c3ccc(N4CCC5(CC4)CC(CN4CCC(CN6CCN7c8cc(-c9ccccc9O)nnc8NC[C@H]7C6)CC4)C5)cc3C2=O)C(=O)N1 (stereo partly drawn) [Example 150]	> 85%
O=C1CCC(N2C(=O)c3ccc(N4CCOC(CN5CCN(C(=O)N6CCN7c8cc(-c9ccccc9O)nnc8NC[C@H]7C6)CC5)C4)cc3C2=O)C(=O)N1 (stereo partly drawn) [Example 117]	75 to 85%
O=C1CCC(N2Cc3ccc(C4CCN(CCN5CCC(CN6CCN7c8cc(-c9ccccc9O)nnc8NC[C@H]7C6)CC5)CC4)cc3C2=O)C(=O)N1 (stereo partly drawn) [Example 120]	> 85%
O=C1CCC(N2C(=O)c3cccc(N4CCN(CCCN5CCC(N6CCN7c8cc(-c9ccccc9O)nnc8NC[C@H]7C6)CC5)CC4)c3C2=O)C(=O)N1 (stereo partly drawn) [Example 69]	> 85%

Now consider the entry below.
[ask] Could you tell me which Dmax is on file for O=C1CCC(N2C(=O)c3ccc(N4CCC(F)(CN5CCC(CN6CCN7c8cc(-c9ccccc9O)nnc8NC[C@H]7C6)CC5)CC4)cc3C2=O)C(=O)N1 (stereo partly drawn) [Example 48] ?
[reply] > 85%
